Each entry below carries its recorded EC50.
target: RIPK1 (recombinant GST-RIPK1 kinase domain, residues 1-327) (Homo sapiens (Human)); test: RIPK1-ADP-Glo Enzymatic Assay; format: biochemical; settings: ADP-Glo; 25 nM GST-RIPK1, 300 μM ATP; assay lower limit ~25 nM; read-out: RIPK1 V0 Ec50
Sequence (Q13546 1-327): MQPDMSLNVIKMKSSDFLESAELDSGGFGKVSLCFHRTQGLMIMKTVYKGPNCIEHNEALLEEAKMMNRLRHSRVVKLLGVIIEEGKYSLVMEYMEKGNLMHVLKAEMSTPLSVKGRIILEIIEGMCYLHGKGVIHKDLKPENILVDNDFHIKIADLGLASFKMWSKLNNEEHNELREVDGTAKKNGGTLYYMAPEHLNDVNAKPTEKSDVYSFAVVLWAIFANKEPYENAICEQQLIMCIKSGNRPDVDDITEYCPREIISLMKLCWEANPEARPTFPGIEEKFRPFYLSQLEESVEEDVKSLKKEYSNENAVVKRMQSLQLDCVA
Where a name gives a salt, the structure may show the parent alone.

Illustrative cases are given below, each with its answer.
compound	experimentalReadout	result
O=C(c1cc(O)ccc1F)N1CCC2(CC1)O[C@@H]1CC[C@@H](c3cc(F)cc(F)c3)N1C2=O	EC50	< 25 nM
CC(C)c1oncc1C(=O)N1CCC2(CC1)O[C@@H]1CC[C@@H](c3cc(F)cc(F)c3)N1C2=O	EC50	989 nM
Cc1cn(-c2cc(N3CCC4(CC3)O[C@@H]3CC[C@@H](c5ccccc5)N3C4=O)ncn2)cn1	EC50	25.2 nM

Would you kindly look at the next entry?
-- ask Assign EC50 to the following record: O=C1N2[C@@H](CC[C@H]2c2cc(F)cc(F)c2)OC12CCN(c1ncc(F)c3nncn13)CC2 [Example 13.13, TFA salt]
-- reply 366 nM
